Read-out: DNA damage-inducible transcript 3 (DDIT3), DDIT3 (gene 1649)
Test: LTEA_HepaRG_DDIT3: Life Technologies and Expression Analysis (LTEA) Assay for DNA damage-inducible transcript 3 (DDIT3) using HepaRG (AID 2283488)
Details: mRNA level, 48 h; actives raise or lower the signal
Procedure: LTEA_HepaRG is a cell based, multiplexed-readout assay that uses HepaRG, a human liver cell line, with measurements taken at 48 hours after chemical dosing on a 96-well plate.LTEA_HepaRG_DDIT3 is one of 102 assay component(s) measured in the LTEA HepaRG cell culture assay. It is a marker of Oxidative Stress.Data from the assay component LTEA_HepaRG_DDIT3 was analyzed into 1 endpoint. […]
The source made the active and inactive calls. How the source made its calls: active means hit-call score of the fitted dose curve at least 0.9, where 1 is the maximum; inactive means score below 0.9.

| SMILES_STR | outcome |
| --- | --- |
| CC1(C)C(=O)N(Br)C(=O)N1Br | inactive |
| COC(=O)CC(=O)OC | inactive |
| C=CC(=C)CCC=C(C)C | inactive |
